I'd be grateful if you could share measured Permeation (%) for these entries.
Tested on: TR146 cells
Experiment: In vitro permeation, buccal model
Type: in vitro ADME, human
Conditions: from CS-loaded OFs, 180 min
Marks after values point to notes of the source that are not given here.

*Q* # Permeation (%) lookup, item O=C(O)CCC(=O)O [Succinic acid]
*A* 103.25 ± 1.42^d %

*Q* Try O=C(O)C[C@H](C(=O)O)[C@@H](O)C(=O)O [Isocitric acid] next.
*A* 2.77 ± 0.01^b %

*Q* Try O=C1CC[C@@H](C(=O)O)N1 [Pyroglutamic acid] next.
*A* 103.24 ± 2.71^c %

*Q* Try O=C(O)c1ccc(O)c(O)c1 [Protocatechuic acid] next.
*A* 84.76 ± 2.51^b %

*Q* Try COc1cc(CC(=O)O)ccc1O [Homovanillic acid] next.
*A* 106.07 ± 2.67^a %

*Q* Try COc1cc(-c2oc3cc(O)cc(O)c3c(=O)c2O)ccc1O [Isorhamnetin] next.
*A* 98.29 ± 1.94^a %
